# Test description: self-splicing fitness, log relative to wild type (ln ratio); higher = more splicing; Tetrahymena group I intron in knt gene, E. coli kanamycin selection, DiMSum; sequences stand for … in CUCUCU…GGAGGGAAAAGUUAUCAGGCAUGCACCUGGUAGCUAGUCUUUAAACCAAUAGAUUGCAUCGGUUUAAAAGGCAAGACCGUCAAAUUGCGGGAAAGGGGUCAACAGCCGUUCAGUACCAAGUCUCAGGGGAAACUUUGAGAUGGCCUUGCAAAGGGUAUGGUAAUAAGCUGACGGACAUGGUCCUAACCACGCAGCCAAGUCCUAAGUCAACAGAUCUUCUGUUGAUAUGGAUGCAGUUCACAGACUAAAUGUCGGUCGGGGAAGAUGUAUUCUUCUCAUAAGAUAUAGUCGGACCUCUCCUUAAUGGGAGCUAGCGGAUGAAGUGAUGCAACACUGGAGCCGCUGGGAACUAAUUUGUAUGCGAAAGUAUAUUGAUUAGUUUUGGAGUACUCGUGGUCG;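 further: selection with 25 µg/mL kanamycin versus none on LB agar overnight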
# Test settings: 30 °C
Binary call on self-splicing fitness (ln): t from -2 upward, f beneath that.

>  <Sequence content>
UGGCAGCAAUAUUACGGCUA

>  <Label class>
t

$$$$
>  <Sequence content>
CCCUAGCAAUAUUACGGGCU

>  <Label class>
f

$$$$
>  <Sequence content>
CAGAAGCAAUAUUACGGGUG

>  <Label class>
t

$$$$
>  <Sequence content>
AUGGAGCAAUAUUACGUAUC

>  <Label class>
f

$$$$
>  <Sequence content>
CGUUAGCAAUAUUACGGUCA

>  <Label class>
t

$$$$
>  <Sequence content>
GACAAGCAAUAUUACGGGUC

>  <Label class>
f

$$$$
>  <Sequence content>
GAGCAGCAAUAUUACGACUG

>  <Label class>
t

$$$$
>  <Sequence content>
CGUGAGCAAUAUUACGAGCU

>  <Label class>
f

$$$$
>  <Sequence content>
GCUGAGCAAUAUUACGCCUA

>  <Label class>
t

$$$$
>  <Sequence content>
UUAUAGCAAUAUUACGCCGG

>  <Label class>
t

$$$$
>  <Sequence content>
AAUUAGCAAUAUUACGCAUA

>  <Label class>
t

$$$$
>  <Sequence content>
CGCAAGCAAUAUUACGCCGA

>  <Label class>
f

$$$$
>  <Sequence content>
AUACAGCAAUAUUACGAGAA

>  <Label class>
f

$$$$
>  <Sequence content>
GUUUAGCAAUAUUACGCCAC

>  <Label class>
t

$$$$
>  <Sequence content>
AAACAGCAAUAUUACGCCCA

>  <Label class>
t

$$$$
>  <Sequence content>
UGAUAGCAAUAUUACGGCGA

>  <Label class>
t

$$$$
>  <Sequence content>
ACGGAGCAAUAUUACGUAUU

>  <Label class>
f

$$$$
>  <Sequence content>
UUGCAGCAAUAUUACGGACG

>  <Label class>
t

$$$$
>  <Sequence content>
GUUAAGCAAUAUUACGUGUU

>  <Label class>
f

$$$$
>  <Sequence content>
AUGUAGCAAUAUUACGGUUA

>  <Label class>
t

$$$$
>  <Sequence content>
GCGCAGCAAUAUUACGAGAA

>  <Label class>
f

$$$$
>  <Sequence content>
UGACAGCAAUAUUACGCGGA

>  <Label class>
t

$$$$
>  <Sequence content>
AAGCAGCAAUAUUACGCGAG

>  <Label class>
t

$$$$
>  <Sequence content>
CUUGAGCAAUAUUACGUCCA

>  <Label class>
f

$$$$
>  <Sequence content>
UUUCAGCAAUAUUACGAUAC

>  <Label class>
f

$$$$
>  <Sequence content>
CAGGAGCAAUAUUACGAUGG

>  <Label class>
t

$$$$
>  <Sequence content>
GGAGAGCAAUAUUACGUUCA

>  <Label class>
t

$$$$
>  <Sequence content>
AUUCAGCAAUAUUACGCAGU

>  <Label class>
f

$$$$
>  <Sequence content>
GUGGAGCAAUAUUACGUAUC

>  <Label class>
f

$$$$
>  <Sequence content>
CGGCAGCAAUAUUACGUCUC

>  <Label class>
t

$$$$
>  <Sequence content>
UACGAGCAAUAUUACGGCUG

>  <Label class>
t

$$$$
>  <Sequence content>
UUUCAGCAAUAUUACGGCGG

>  <Label class>
t

$$$$
>  <Sequence content>
AAUCAGCAAUAUUACGUAUU

>  <Label class>
t

$$$$
>  <Sequence content>
GUUCAGCAAUAUUACGUCAU

>  <Label class>
t

$$$$
>  <Sequence content>
GCGCAGCAAUAUUACGACGC

>  <Label class>
f

$$$$
>  <Sequence content>
GGAGAGCAAUAUUACGAAGC

>  <Label class>
f

$$$$
>  <Sequence content>
AUAAAGCAAUAUUACGUUCA

>  <Label class>
t

$$$$
>  <Sequence content>
GCCUAGCAAUAUUACGGGUG

>  <Label class>
t

$$$$
>  <Sequence content>
CGAUAGCAAUAUUACGCAGC

>  <Label class>
f

$$$$
>  <Sequence content>
AUUUAGCAAUAUUACGGACC

>  <Label class>
t

$$$$
>  <Sequence content>
AUAUAGCAAUAUUACGUUGG

>  <Label class>
f

$$$$
>  <Sequence content>
GUCCAGCAAUAUUACGACUC

>  <Label class>
t

$$$$
>  <Sequence content>
UAUAAGCAAUAUUACGGCGG

>  <Label class>
t

$$$$
>  <Sequence content>
GACAAGCAAUAUUACGAGAA

>  <Label class>
t

$$$$
>  <Sequence content>
CCGGAGCAAUAUUACGUUUG

>  <Label class>
t

$$$$
>  <Sequence content>
UGGCAGCAAUAUUACGCUCU

>  <Label class>
f

$$$$
>  <Sequence content>
AAGGAGCAAUAUUACGCUUG

>  <Label class>
t

$$$$
>  <Sequence content>
UGAAAGCAAUAUUACGAUAA

>  <Label class>
t

$$$$
>  <Sequence content>
GGGCAGCAAUAUUACGUGUU

>  <Label class>
t

$$$$
>  <Sequence content>
UUGUAGCAAUAUUACGUGUG

>  <Label class>
t

$$$$
>  <Sequence content>
CGGUAGCAAUAUUACGGGAC

>  <Label class>
f

$$$$
>  <Sequence content>
UCGCAGCAAUAUUACGUUUC

>  <Label class>
f

$$$$
>  <Sequence content>
GCCCAGCAAUAUUACGUUAA

>  <Label class>
t

$$$$
>  <Sequence content>
AACGAGCAAUAUUACGUAUA

>  <Label class>
f

$$$$
>  <Sequence content>
CCUAAGCAAUAUUACGCGCU

>  <Label class>
f

$$$$
>  <Sequence content>
CCUCAGCAAUAUUACGACGA

>  <Label class>
f

$$$$
